assay: yeast display, Sf9 membrane polyspecificity reagent, FACS + sequencing; frameworks hold sequencing errors
ENDPOINT: polyreactivity (PSR sort gate)

QVQLVESGGVLVQAGGSLRLSCAASGRTFFRYTMGWYRPAPGKERELVAAISRSDGSTYYADSVKGRFTISRDNAKNTVYLQMNSLKPEDTAVYYCAKSLPSGYYYWGQGTQVTVSS: low polyreactivity
QVQQVESGGGLVQAGGSLRLSCAASGFIFFGYAMGWYRQARGKERELVAAITSGGSTYYADSVKGRFTISRDNAKNTVYLQMNSLKPEDTAVYYCAADNSGWWGTGYNYWGQGTQVTVSS: high polyreactivity
QVQLVESGGGLVQAGGSLRLSCAASGRIFVNNAMGWYRQAPGKERELVATITSGGSTYYADSVKGRFTISRDNAKNTVYLQMNSLKPEDSAVYYCAARRWYVHYFAYGYWGQGTQVTVSS: low polyreactivity
QVQLVESGGGLVQAGGSLRLSCAASGRIFRGYAMGWYRQAPGKERELVAAISASGGSTYYADSVKGRFTISRDNAKNTVYLQMNSLKPEDTAVYYCATTIFYTYYGLYDYWGQGTQVTVSS: high polyreactivity

Look up polyreactivity (PSR sort gate) of `QVQLVESGGGLDQAGGSLRLSCAASGSTFSGYAMGWYRQAPGKERELVATITRRGGNTYYADSVKGRFTISRDNAKNTVYLQMNSLKPEDTAVYYCAKDGRVHSPYDYWGQGTQVTVSS` and report it.
low polyreactivity
